Ref: patent US20210024639A1

cell scattering score, HPAF-II, 1.000 nM values by entry
measuredOn: native human MET on living human cells (human, UniProt P08581 25-1390)
Sequence (P08581 25-1390): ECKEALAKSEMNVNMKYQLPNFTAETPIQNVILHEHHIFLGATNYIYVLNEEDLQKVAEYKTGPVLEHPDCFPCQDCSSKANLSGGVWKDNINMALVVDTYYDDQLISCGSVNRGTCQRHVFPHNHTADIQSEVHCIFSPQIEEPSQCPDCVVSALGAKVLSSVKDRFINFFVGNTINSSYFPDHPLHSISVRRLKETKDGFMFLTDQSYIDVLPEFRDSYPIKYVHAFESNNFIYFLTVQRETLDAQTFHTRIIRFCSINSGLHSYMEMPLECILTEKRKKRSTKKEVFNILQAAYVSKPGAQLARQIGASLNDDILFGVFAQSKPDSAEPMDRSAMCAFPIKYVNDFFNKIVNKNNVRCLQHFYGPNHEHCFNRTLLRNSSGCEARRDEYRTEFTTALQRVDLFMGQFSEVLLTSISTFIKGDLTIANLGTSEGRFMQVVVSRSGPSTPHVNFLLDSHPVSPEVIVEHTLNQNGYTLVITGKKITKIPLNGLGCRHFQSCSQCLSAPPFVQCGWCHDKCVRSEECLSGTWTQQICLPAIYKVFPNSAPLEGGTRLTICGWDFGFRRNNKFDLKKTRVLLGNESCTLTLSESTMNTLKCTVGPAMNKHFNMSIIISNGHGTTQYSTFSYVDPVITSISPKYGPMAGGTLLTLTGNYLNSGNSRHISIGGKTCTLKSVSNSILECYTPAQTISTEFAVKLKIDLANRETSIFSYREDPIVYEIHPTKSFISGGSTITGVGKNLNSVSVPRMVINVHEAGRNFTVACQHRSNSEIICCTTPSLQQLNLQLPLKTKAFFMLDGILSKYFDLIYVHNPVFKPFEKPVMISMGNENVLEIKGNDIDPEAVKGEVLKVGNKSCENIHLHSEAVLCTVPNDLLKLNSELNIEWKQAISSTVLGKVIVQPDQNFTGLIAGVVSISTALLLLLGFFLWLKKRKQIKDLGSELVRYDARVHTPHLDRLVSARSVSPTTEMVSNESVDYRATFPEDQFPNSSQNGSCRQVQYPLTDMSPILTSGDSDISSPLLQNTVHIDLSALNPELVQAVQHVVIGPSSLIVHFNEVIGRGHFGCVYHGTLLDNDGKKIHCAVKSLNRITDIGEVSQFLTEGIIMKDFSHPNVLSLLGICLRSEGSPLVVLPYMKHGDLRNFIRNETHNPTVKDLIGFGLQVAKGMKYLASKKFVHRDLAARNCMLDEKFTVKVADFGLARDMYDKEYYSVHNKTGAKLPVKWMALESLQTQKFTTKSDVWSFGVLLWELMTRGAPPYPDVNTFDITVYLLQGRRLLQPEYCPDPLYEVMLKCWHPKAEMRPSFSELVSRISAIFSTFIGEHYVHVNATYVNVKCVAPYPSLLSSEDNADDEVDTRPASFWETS
method: cell-based or functional assay
Give the value, in units of score 0-4, as a plain number.

chimeric llama-human IgG1 mAb 71A3 (antibody, V domains shown) VH: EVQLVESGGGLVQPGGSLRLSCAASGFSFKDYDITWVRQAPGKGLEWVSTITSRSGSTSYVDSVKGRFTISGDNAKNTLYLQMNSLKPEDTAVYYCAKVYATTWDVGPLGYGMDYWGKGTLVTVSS VL: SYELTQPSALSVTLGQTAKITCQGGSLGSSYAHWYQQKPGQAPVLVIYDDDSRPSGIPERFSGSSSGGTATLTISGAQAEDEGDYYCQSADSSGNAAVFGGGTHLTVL    4

Continue with the next binder.
Form field cell scattering score, HPAF-II, 1.000 nM, entry chimeric llama-human IgG1 mAb 71G3 (antibody, V domains shown) VH: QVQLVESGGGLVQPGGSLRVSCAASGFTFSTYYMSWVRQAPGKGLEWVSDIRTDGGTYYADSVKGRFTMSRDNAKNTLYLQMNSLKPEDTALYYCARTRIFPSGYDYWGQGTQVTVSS VL: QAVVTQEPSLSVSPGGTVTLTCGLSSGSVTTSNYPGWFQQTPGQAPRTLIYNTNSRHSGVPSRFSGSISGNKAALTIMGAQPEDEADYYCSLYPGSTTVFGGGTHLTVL : 4
